From: ChEMBL document CHEMBL1155491

# Assay Target: Histone deacetylase 5 (Homo sapiens, UniProt Q9UQL6)
# Sequence (Q9UQL6 whole entry): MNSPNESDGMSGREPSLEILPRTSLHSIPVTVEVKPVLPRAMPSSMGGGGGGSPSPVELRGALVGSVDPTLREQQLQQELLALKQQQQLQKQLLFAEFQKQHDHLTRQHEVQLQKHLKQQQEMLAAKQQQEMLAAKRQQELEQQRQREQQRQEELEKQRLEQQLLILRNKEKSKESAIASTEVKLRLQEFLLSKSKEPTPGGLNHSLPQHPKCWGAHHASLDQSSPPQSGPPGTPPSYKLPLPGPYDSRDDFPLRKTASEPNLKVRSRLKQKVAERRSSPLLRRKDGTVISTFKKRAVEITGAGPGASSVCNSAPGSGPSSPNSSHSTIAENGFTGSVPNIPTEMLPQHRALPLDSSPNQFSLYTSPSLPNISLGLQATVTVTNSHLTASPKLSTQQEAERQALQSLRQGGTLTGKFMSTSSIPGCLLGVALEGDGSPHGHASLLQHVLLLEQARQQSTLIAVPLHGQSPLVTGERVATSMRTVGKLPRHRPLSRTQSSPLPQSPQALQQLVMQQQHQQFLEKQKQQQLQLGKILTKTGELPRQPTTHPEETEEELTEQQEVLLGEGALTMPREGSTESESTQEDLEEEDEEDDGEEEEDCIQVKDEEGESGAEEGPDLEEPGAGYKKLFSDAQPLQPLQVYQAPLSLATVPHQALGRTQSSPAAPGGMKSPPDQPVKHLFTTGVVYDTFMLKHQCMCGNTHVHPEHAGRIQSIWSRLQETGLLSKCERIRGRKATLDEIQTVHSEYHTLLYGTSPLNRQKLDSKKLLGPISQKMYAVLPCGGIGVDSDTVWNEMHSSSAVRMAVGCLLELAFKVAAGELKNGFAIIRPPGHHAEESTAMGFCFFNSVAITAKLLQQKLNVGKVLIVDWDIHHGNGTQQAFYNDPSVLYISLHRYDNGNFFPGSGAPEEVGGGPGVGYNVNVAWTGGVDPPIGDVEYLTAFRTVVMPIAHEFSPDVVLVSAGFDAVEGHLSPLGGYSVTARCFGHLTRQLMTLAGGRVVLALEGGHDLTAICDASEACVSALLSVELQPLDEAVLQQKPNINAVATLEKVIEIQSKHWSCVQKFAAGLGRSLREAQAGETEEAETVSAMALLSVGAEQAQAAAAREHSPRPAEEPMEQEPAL
Quantity Kind: pKi
pKi is a log-scale quantity: -log10 of the concentration expressed in molar.

smiles_string=O=C(CCCCCNC(=O)NC(=O)c1ccc(Br)cc1)NO value_observed=7.89

Okay, now this compound:
Query: What value of pKi has been recorded for this entry: O=C(CCCCCNC(=O)NC(=O)c1ccccc1)NO
Response: 7.34

---

# Assay: Apparent permeability from apical to basolateral side of Caco-2 cells
# Assay type: ADME, cell-based
# Applied Conditions: human
Quantity Kind: Papp A→B

smiles_string=O=C(CCCCCNC(=O)NC(=O)c1ccccc1)NO quantity_kind="Papp A→B" value_observed="3.12 ×10⁻⁶ cm/s"

As a next step, examine the molecule that follows.
Query: Reported Papp A→B, molecule O=C(CCCCCCC(=O)Nc1ccccc1)NO : ____
Response: 1.7 ×10⁻⁶ cm/s

---

# Assay Target: Histone deacetylase 1 (Homo sapiens, UniProt Q13547)
# Sequence (Q13547 whole entry): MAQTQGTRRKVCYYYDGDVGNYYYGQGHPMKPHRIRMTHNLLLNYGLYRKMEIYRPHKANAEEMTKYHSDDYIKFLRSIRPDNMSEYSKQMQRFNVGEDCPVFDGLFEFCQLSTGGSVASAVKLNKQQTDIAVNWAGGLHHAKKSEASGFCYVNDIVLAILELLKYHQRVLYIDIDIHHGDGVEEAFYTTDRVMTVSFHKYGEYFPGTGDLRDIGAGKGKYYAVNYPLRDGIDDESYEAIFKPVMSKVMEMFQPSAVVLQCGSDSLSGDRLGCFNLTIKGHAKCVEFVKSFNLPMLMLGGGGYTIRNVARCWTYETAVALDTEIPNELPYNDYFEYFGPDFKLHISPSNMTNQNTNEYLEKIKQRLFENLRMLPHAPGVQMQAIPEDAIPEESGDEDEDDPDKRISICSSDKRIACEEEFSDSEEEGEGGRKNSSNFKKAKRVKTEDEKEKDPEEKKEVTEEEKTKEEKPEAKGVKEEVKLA
Catalogue of pIC50 values
Interpret pIC50 as the negative base-10 log of the concentration measured in mol/L.

Below: 4 compounds and their reported pIC50.
smiles_string=O=C(CCCCCNC(=O)NC(=O)c1cccc(Br)c1)NO assay_target="Histone deacetylase 1 (Homo sapiens, UniProt Q13547)" quantity_kind=pIC50 value_observed=5.50
smiles_string=O=C(CCCCCNC(=O)NC(=O)c1ccc(N2CCCC2)c([N+](=O)[O-])c1)NO assay_target="Histone deacetylase 1 (Homo sapiens, UniProt Q13547)" quantity_kind=pIC50 value_observed=5.46
smiles_string=O=C(CCCCCNC(=O)NC(=O)c1ccc2c(c1)nc(CCc1ccccc1)n2CCN1CCCC1)NO assay_target="Histone deacetylase 1 (Homo sapiens, UniProt Q13547)" quantity_kind=pIC50 value_observed=5.27
smiles_string=O=C(CCCCCNC(=O)NC(=O)c1ccc2c(c1)ncn2CCCc1ccccc1)NO assay_target="Histone deacetylase 1 (Homo sapiens, UniProt Q13547)" quantity_kind=pIC50 value_observed=5.43

Query: Quick one: pIC50 for CC(C)(C)c1ccc(C(=O)NC(=O)NCCCCCC(=O)NO)cc1 ?
Response: 5.63

Query: Item: O=C(CCCCCNC(=O)NC(=O)c1ccc(-c2cncnc2)cc1)NO
Response: 5.00

Query: For O=C(CCCCCN(Cc1ccccn1)C(=O)NC(=O)c1ccccc1)NO then?
Response: 4.83

Query: Same again, this time with CCCCc1nc2cc(C(=O)NC(=O)NCCCCCC(=O)NO)ccc2n1CCN1CCCC1
Response: 5.54

Query: Do the same for CCN(CC)CCNc1ccc(C(=O)NC(=O)NCCCCCC(=O)NO)cc1[N+](=O)[O-] please
Response: 5.77

Query: Please give the result for O=C(CCCCCCN(Cc1ccccn1)C(=O)NC(=O)c1ccccc1)NO too.
Response: 5.04

Query: One more compound: O=C(CCCCCNC(=O)NC(=O)c1ccc(NC(=O)Cc2ccccc2)cc1)NO
Response: 4.88

Query: Now the same for O=C(CCCCCNC(=O)NC(=O)c1ccc(NCCN2CCCC2)c([N+](=O)[O-])c1)NO
Response: 5.62

---

# Assay: Solubility at pH 7
# Format: physicochemical
# Applied Conditions: buffer
Quantity Kind: solubility

Some compounds with known solubility results, for comparison:
smiles_string=O=C(CCCCCNC(=O)NC(=O)c1ccc(NCCN2CCCC2)c([N+](=O)[O-])c1)NO value_observed="> 205 µM"
smiles_string=O=C(CCCCCNC(=O)NC(=O)c1ccc(-c2cncnc2)cc1)NO value_observed="17 µM"
smiles_string=O=C(CCCCCNC(=O)NC(=O)c1ccccc1)NO value_observed="177 µM"

Query: Would you mind telling me what solubility value was observed for O=C(CCCCCNC(=O)NC(=O)c1ccc(NC(=O)Cc2ccccc2)cc1)NO ?
Response: 28 µM

Query: Similarly, O=C(CCCCCNC(=O)NC(=O)c1ccc(Br)cc1)NO ?
Response: 51 µM

Query: Now give it for O=C(CCCCCNC(=O)NC(=O)c1ccc2c(c1)nc(CCc1ccccc1)n2CCN1CCCC1)NO too.
Response: > 250 µM

Query: And then CCCCc1nc2cc(C(=O)NC(=O)NCCCCCC(=O)NO)ccc2n1CCN1CCCC1 , what is it?
Response: > 211 µM

Query: // query: O=C(CCCCCCC(=O)Nc1ccccc1)NO
Response: > 250 µM

---

# Assay Target: Histone deacetylase 4 (Homo sapiens)
# Sequence (P56524 whole entry): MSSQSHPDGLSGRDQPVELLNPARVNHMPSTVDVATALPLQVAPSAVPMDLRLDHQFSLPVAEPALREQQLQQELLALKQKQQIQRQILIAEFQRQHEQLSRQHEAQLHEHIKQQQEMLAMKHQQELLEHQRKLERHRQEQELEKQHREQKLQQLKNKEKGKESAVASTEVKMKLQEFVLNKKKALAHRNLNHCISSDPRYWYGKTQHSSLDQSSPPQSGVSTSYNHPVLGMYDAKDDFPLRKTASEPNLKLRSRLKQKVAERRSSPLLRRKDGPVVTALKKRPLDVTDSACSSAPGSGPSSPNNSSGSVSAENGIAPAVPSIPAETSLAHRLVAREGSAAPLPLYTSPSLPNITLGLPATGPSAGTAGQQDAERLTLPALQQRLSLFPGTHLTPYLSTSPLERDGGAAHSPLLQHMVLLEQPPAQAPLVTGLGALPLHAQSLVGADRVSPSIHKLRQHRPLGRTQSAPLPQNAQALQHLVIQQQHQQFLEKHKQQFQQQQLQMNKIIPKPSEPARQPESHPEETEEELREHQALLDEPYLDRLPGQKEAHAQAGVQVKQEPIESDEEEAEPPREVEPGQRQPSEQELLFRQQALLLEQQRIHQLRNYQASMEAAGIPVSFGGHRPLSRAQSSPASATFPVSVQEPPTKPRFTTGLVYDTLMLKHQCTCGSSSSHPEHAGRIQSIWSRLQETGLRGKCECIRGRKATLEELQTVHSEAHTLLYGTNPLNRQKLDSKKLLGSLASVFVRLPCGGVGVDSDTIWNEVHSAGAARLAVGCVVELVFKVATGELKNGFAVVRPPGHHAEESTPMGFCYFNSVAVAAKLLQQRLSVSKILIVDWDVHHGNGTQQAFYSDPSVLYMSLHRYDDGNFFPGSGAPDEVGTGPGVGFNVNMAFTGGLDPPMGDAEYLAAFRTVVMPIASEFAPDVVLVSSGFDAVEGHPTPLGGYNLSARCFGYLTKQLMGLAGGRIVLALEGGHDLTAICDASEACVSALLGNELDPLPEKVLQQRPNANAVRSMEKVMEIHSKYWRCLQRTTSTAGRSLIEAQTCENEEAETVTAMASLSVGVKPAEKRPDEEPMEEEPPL
Quantity Kind: pKi
# pKi is unitless: minus log10 of the molar concentration; print number only

Query: State its pKi on Histone deacetylase 4 (Homo sapiens): O=C(CCCCCNC(=O)NC(=O)c1ccccc1)NO
Response: 7.70

---

# Assay: Toxicity in human PC3 cells xenografted nude mouse
# Format: organism-based, PC-3
# Applied Conditions: in vivo
Quantity Kind: MTD (mg/kg)
Provide only the numeric value, understood in mg/kg.

smiles_string=O=C(CCCCCCC(=O)Nc1ccccc1)NO quantity_kind=MTD value_observed=160

Continue with the next compound.
Query: Need MTD, item O=C(CCCCCNC(=O)NC(=O)c1ccccc1)NO
Response: 200

---

# Assay: Half life in mouse liver microsome
# Format: ADME
# Applied Conditions: liver microsomes
Quantity Kind: half-life

compound=O=C(CCCCCNC(=O)NC(=O)c1ccc(Br)cc1)NO value_observed="31 min"
compound="O=C(CCCCCCC(=O)Nc1ccccc1)NO [VORINOSTAT]" value_observed="> 30 min"

Continue with the next compound.
Query: // half-life lookup, key: O=C(CCCCCNC(=O)NC(=O)c1ccccc1)NO
Response: > 30 min

---

The reader will find Ki measurements below, all made with Histone deacetylase 8 (Homo sapiens).
Sequence (Q9BY41 whole entry): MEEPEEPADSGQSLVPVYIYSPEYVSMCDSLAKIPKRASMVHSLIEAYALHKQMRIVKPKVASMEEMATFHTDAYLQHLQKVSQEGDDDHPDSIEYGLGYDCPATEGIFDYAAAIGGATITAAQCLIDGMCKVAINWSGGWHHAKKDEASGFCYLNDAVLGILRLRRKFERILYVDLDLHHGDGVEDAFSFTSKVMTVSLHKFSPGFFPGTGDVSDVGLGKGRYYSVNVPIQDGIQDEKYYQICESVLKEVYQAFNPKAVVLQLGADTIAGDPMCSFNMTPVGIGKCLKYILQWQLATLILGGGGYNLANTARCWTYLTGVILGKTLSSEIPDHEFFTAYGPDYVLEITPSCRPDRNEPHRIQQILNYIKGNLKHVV
All answers are understood in nM, so give the number only.

smiles_string=O=C(CCCCCNC(=O)NC(=O)c1ccccc1)NO assay_target="Histone deacetylase 8 (Homo sapiens)" quantity_kind=Ki value_observed=252

Moving on to the next molecule.
Query: GET /values?readout=Ki&item= O=C(CCCCCNC(=O)NC(=O)c1ccc(Br)cc1)NO
Response: 315

---

Measurement record for UniProt Q13547; quantity recorded: log10(IC50).
Note: values are log10 of IC50 expressed in nM.

Below, 8 molecules whose answers are already recorded.
smiles_string=CC(C)(C)c1ccc(C(=O)NC(=O)NCCCCCC(=O)NO)cc1 quantity_kind=log10(IC50) value_observed=1.38
smiles_string=O=C(CCCCCNC(=O)NC(=O)c1ccc(I)cc1)NO quantity_kind=log10(IC50) value_observed=0.90
smiles_string=CCN(CC)CCn1cnc2cc(C(=O)NC(=O)NCCCCCC(=O)NO)ccc21 quantity_kind=log10(IC50) value_observed=1.32
smiles_string=O=C(CCCCCNC(=O)NC(=O)c1ccc(NCCN2CCCC2)c([N+](=O)[O-])c1)NO quantity_kind=log10(IC50) value_observed=1.34
smiles_string=CCCCc1nc2cc(C(=O)NC(=O)NCCCCCC(=O)NO)ccc2n1CCN1CCCC1 quantity_kind=log10(IC50) value_observed=1.34
smiles_string=O=C(CCCCCNC(=O)NC(=O)c1ccc(N2CCOCC2)c([N+](=O)[O-])c1)NO quantity_kind=log10(IC50) value_observed=1.74
smiles_string=CN1CCN(c2ccc(C(=O)NC(=O)NCCCCCC(=O)NO)cc2[N+](=O)[O-])CC1 quantity_kind=log10(IC50) value_observed=1.63
smiles_string=O=C(CCCCCNC(=O)NC(=O)c1ccc(N2CCCC2)c([N+](=O)[O-])c1)NO quantity_kind=log10(IC50) value_observed=1.30

Query: State the recorded log10(IC50) for this entry: O=C(CCCCCNC(=O)NC(=O)c1ccc(N2CCCCC2)c([N+](=O)[O-])c1)NO
Response: 1.66

Query: Next entry: CN(C)CCn1cnc2cc(C(=O)NC(=O)NCCCCCC(=O)NO)ccc21
Response: 1.69

Query: Would you kindly repeat that for O=C(CCCCCNC(=O)NC(=O)c1ccc(Br)cc1)NO ?
Response: 1.11

Query: Please give the result for O=C(CCCCCNC(=O)NC(=O)c1ccc2c(c1)ncn2CCCc1ccccc1)NO too.
Response: 1.30

Query: Lookup O=C(CCCCCNC(=O)NC(=O)c1ccc2ccccc2c1)NO
Response: 0.78

---

Documented pKi across a set of compounds
# Assay Target: Histone deacetylase 11 (Homo sapiens)
# Sequence (Q96DB2 whole entry): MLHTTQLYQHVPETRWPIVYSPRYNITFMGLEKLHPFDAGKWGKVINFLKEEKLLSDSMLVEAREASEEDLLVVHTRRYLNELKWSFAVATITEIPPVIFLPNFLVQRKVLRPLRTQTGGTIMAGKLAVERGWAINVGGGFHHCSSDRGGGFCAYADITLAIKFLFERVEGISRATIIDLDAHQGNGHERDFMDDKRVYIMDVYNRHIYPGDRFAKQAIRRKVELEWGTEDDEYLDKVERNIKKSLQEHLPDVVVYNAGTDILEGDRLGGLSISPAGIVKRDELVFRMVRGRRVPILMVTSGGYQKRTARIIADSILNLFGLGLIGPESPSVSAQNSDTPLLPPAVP
Answer as the number alone; pKi is minus log10 of concentration in mol/L.

smiles_string=O=C(CCCCCNC(=O)NC(=O)c1ccc(Br)cc1)NO value_observed=8.05

Query: I'd like to know its pKi. The compound in question is O=C(CCCCCNC(=O)NC(=O)c1ccccc1)NO
Response: 7.41

---

# Assay Target: UniProt:Q13547
Class (required): determined from IC50; valid ranges are lower level = under 3 µM, middle level = from 3 µM up to 8 µM, upper level = 8 µM and over

Some solved entries appear below for comparison.
smiles_string=O=C(CCCCCNC(=O)NC(=O)c1ccc2ccccc2c1)NO assay_target=UniProt:Q13547 class="lower level"
smiles_string=O=C(CCCCCNC(=O)NC(=O)c1ccc(F)cc1)NO assay_target=UniProt:Q13547 class="lower level"
smiles_string=O=C(CCCCCNC(=O)NC(=O)c1ccccc1)NO assay_target=UniProt:Q13547 class="lower level"
smiles_string=O=C(CCCCCCNC(=O)NC(=O)c1ccccc1)NO assay_target=UniProt:Q13547 class="lower level"
smiles_string=CCN(CC)CCn1cnc2cc(C(=O)NC(=O)NCCCCCC(=O)NO)ccc21 assay_target=UniProt:Q13547 class="middle level"

Query: Looking at O=C(CCCCCNC(=O)NC(=O)c1ccc2c(c1)ncn2CCc1ccccc1)NO , which class would you pick?
Response: upper level

Query: Try this molecule too: CN(C)CCn1cnc2cc(C(=O)NC(=O)NCCCCCC(=O)NO)ccc21
Response: upper level

Query: // next record O=C(CCCCCCCNC(=O)NC(=O)c1ccccc1)NO
Response: upper level

Query: Same again, this time with CN1CCN(c2ccc(C(=O)NC(=O)NCCCCCC(=O)NO)cc2[N+](=O)[O-])CC1
Response: upper level

Query: And for O=C(CCCCCNC(=O)NC(=O)c1ccc([N+](=O)[O-])cc1)NO ?
Response: lower level

Query: Next up: O=C(CCCCCNC(=O)NC(=O)c1ccc(N2CCCCC2)c([N+](=O)[O-])c1)NO
Response: middle level
